Biological target: Potassium voltage-gated channel subfamily A member 3 (Homo sapiens, UniProt P22001)
Sequence (P22001 whole entry): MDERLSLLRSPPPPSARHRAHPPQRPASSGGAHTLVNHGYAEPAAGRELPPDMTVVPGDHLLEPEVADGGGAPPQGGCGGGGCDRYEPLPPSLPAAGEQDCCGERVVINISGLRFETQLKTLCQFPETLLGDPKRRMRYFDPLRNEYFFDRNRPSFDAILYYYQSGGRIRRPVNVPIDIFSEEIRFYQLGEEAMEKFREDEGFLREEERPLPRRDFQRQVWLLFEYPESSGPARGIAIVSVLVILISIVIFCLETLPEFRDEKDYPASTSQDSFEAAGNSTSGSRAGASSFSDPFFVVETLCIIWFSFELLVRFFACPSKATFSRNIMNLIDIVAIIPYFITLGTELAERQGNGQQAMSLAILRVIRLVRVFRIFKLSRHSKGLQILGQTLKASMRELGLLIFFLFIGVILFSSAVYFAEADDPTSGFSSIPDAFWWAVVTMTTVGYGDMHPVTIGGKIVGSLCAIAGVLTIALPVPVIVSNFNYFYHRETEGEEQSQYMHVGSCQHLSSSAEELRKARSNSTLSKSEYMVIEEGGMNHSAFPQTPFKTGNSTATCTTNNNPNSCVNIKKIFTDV
Assay: Inhibition of human voltage-gated potassium channel subunit Kv1.3 expressed in Xenopus oocytes
In this section we review reported IC50 values for a set of molecules.

QUERY SMILES | IC50 / µM
O=C(NCc1ccccc1-c1ccccc1C(=O)NCCc1ccccn1)OCc1ccccc1 | 2.3
C[C@H](OC(=O)NCc1ccccc1-c1ccccc1C(=O)NCCc1ccccn1)c1ccccc1 | 0.5

---

Target: hERG (KCNH2) (Homo sapiens, UniProt Q12809)
Sequence (Q12809 whole entry): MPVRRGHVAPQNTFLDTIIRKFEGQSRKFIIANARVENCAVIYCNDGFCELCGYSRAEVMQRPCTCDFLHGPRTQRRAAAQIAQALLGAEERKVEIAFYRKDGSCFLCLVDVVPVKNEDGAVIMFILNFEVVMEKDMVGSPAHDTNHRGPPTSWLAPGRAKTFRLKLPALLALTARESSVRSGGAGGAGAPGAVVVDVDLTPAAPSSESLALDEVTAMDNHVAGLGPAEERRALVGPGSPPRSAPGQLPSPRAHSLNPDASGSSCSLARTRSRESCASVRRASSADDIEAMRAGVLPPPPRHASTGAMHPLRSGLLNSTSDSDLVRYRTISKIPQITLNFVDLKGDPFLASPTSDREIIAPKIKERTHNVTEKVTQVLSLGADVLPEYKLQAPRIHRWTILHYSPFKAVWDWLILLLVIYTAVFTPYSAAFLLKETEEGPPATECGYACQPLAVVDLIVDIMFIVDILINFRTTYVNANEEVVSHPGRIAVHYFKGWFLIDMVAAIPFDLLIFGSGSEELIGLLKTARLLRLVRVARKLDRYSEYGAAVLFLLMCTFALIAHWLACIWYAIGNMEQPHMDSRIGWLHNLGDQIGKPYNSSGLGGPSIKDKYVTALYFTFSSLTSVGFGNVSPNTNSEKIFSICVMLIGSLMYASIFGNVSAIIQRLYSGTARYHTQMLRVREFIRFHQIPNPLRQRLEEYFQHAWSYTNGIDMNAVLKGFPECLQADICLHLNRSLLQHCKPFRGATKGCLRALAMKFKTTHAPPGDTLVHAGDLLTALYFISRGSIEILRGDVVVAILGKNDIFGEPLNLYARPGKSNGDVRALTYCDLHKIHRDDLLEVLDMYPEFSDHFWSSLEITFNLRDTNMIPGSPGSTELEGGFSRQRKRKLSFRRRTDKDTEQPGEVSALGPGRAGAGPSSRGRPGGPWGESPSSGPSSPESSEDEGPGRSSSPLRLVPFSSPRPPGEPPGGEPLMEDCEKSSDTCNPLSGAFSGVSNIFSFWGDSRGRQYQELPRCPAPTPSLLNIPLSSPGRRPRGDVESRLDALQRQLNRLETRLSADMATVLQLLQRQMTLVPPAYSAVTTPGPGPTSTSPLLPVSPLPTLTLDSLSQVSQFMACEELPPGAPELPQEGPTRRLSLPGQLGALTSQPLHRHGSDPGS
Test: Inhibition of human Potassium channel HERG expressed in Xenopus oocytes at 10 uM
Assay type: cell-based, Oocyte
Conditions: Xenopus oocytes expressing human hERG

QUERY SMILES | READOUT UNITS | inhibition at 10 µM
C[C@H](OC(=O)NCc1ccccc1-c1ccccc1C(=O)NCCc1ccccn1)c1ccccc1 | % | 11
O=C(NCc1ccccc1-c1ccccc1C(=O)NCCc1ccccn1)OCc1ccccc1 | % | 7

---

Target: Potassium voltage-gated channel subfamily A member 5 (Homo sapiens, UniProt P22460)
Sequence (P22460 whole entry): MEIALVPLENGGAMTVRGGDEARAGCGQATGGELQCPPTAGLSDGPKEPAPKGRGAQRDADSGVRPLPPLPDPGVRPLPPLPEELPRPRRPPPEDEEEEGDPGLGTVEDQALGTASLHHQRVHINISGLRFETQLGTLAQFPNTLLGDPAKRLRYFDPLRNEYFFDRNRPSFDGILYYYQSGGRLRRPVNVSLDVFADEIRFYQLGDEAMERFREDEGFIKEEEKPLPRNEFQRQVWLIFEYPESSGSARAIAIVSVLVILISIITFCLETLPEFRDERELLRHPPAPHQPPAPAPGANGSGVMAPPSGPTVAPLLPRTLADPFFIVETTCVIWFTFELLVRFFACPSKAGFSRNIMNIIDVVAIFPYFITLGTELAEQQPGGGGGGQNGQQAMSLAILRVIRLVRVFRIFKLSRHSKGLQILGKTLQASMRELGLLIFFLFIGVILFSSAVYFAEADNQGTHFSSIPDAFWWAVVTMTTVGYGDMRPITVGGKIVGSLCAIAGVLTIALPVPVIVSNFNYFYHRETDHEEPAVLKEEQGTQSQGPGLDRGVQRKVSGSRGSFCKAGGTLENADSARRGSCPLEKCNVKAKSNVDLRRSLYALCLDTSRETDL
Experiment: Inhibition of human voltage-gated potassium channel subunit Kv1.5 expressed in Xenopus oocytes
Threshold 2 µM. IC50 below it: true. IC50 at it or above: false.

QUERY SMILES | CATEGORY
CC(C)CCNC(=O)c1ccccc1-c1ccccc1CNCCc1ccccc1 | false
C[C@@H](CC(=O)NCc1ccccc1-c1ccccc1C(=O)NCCc1ccccn1)c1ccccc1 | true
O=C(NCc1ccccc1-c1ccccc1C(=O)NCc1ccc(F)cc1F)OCc1ccccc1 | true
CC(C)CCNC(=O)c1ccccc1-c1ccncc1CNC(=O)OCc1ccccc1 | false
CN(C)CC(C)(C)CNC(=O)c1ccccc1-c1ccccc1CNC(=O)OCc1ccccc1 | false

This collection of values is drawn from ChEMBL document CHEMBL1145963.
